Data provenance is patent US6720346B2.

Target: CDK2/cyclin A (Homo sapiens, UniProt P24941)
Construct: made in house; host or cells: CDK2: insect cells (baculovirus); cyclin A: E. coli
Test: Inhibition of CDK2/cyclin A retinoblastoma kinase activity (Ki; % inhibition)
Type: biochemical
Conditions: 0.03 μM compound; 0.03 µM

| Compound | CDK2 % Inhibition at 0.03 μM (%) |
| --- | --- |
| CC(NC(=O)c1ccc(Nc2nc(N)c(C(=O)c3c(F)cccc3F)s2)cc1)C1CCCCC1 (stereo not shown) [Example G300] | −18 |
| Nc1nc(Nc2ccc(C(=O)NC3CCN(Cc4ccccc4)C3)cc2)sc1C(=O)c1c(F)cccc1F (stereo not shown) [Example G381] | 5 |
| Nc1nc(Nc2ccc(C(=O)NC3CCN(Cc4ccccc4)C3)cc2)sc1C(=O)c1c(F)cccc1F (stereo not shown) [Example G353] | 35 |
| CC(NC(=O)c1ccc(Nc2nc(N)c(C(=O)c3c(F)cccc3F)s2)cc1)C1CCCCC1 (stereo not shown) [Example G388] | 3 |

----------
Molecular target: human CDK4/cyclin D3 (Homo sapiens, UniProt P11802)
Construct: made in house; host or cells: insect cells co-infected with baculovirus vectors
Sequence (P11802 whole entry): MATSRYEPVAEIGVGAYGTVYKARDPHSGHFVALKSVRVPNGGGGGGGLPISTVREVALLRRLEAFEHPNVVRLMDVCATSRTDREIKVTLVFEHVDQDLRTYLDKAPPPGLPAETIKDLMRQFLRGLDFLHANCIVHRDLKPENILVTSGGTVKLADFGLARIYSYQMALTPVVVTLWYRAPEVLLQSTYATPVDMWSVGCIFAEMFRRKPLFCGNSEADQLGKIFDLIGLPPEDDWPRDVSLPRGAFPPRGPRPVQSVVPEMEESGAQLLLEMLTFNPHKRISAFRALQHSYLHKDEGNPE
Sequence (P30281 1-264 partner limits assumed): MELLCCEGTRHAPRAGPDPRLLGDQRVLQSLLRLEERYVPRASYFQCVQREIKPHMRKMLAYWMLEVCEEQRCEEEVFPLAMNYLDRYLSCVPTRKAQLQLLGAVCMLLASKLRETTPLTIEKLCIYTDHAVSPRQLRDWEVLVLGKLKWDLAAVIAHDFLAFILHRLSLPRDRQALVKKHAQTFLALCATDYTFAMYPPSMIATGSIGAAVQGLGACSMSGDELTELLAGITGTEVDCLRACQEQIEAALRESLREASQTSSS
Assay: Inhibition of CDK4/cyclin D retinoblastoma kinase activity (Ki; % inhibition)
Assay type: biochemical
Settings: 0.03 μM compound

| Molecule | CDK4 % Inhibition at 0.03 μM (%) |
| --- | --- |
| CN(Cc1ccco1)C(=O)c1ccc(Nc2nc(N)c(C(=O)c3c(F)cccc3F)s2)cc1 | 12 |
| CCN(C)C(=O)c1ccc(Nc2nc(N)c(C(=O)c3c(F)cccc3F)s2)cc1 | −2 |
| CC(=O)N(C)C1CCN(C(=O)c2ccc(Nc3nc(N)c(C(=O)c4c(F)cccc4F)s3)cc2)C1 (stereo not shown) | 14 |
| COCCN1CCN(C(=O)c2ccc(Nc3nc(N)c(C(=O)c4c(F)cccc4F)s3)cc2)CC1 | 6 |

----------
Biological target: phosphorylated LCK kinase (Homo sapiens, UniProt P06239, C224D/P223M)
Construct: starting from amino acid 223 to the end of the protein at amino acid 509; made in house; host or cells: insect cells
Sequence (P06239 223-509 P223M/C224D): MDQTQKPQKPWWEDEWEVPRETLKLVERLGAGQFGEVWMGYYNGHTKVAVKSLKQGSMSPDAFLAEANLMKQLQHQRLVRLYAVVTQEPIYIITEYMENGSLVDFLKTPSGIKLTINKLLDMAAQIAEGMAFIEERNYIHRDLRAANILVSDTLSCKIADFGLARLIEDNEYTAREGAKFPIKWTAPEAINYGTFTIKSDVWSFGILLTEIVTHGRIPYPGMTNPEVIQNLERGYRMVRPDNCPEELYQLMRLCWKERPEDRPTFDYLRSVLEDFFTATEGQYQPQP
Experiment: Inhibition of phosphorylated LCK tyrosine kinase activity (coupled spectrophotometric assay)
Type: biochemical
Details: read-out: P-LCK % Inhibition at 1 μM

| Compound | inhibition at 1 µM, % |
| --- | --- |
| Nc1nc(Nc2ccc(C(=O)Nc3ccc4c(c3)OCCO4)cc2)sc1C(=O)c1c(F)cccc1F [Example A17] | 0 |
| Nc1nc(Nc2ccc(C(=O)Nc3ccccc3)cc2)sc1C(=O)c1c(F)cccc1F [Example A9] | 5 |
| CC(=O)N(C)c1ccc(NC(=O)c2ccc(Nc3nc(N)c(C(=O)c4c(F)cccc4F)s3)cc2)cc1 [Example A25] | 0 |
| CN(C)CCN(C)C(=O)c1ccc(Nc2nc(N)c(C(=O)c3c(F)cccc3F)s2)cc1 [Example A3] | 5 |

----------
System: HCT-116 cell line
Experiment: Inhibition of cell growth, MTT tetrazolium salt assay
Type: cell-based
Conditions: HCT-116 cells, 0.1 μM compound
Experimental: Inhibition of cell growth was measured using the tetrazolium salt assay, which is based on the ability of viable cells to reduce 3-(4,5-dimethylthiazol-2-yl)-2,5-[2H]-diphenyltetrazolium bromide (MTT) to formazan (Mossman, Journal of Immunological Methods, 65, (1983), pp. 55-58). The water-insoluble purple formazan product was then detected spectrophotometrically. The HCT-116 cell line was used as a representative cancer cell line and grown in 96-well plates. […]

| Compound | HCT-116 % Inhibition at 0.1 μM [%] |
| --- | --- |
| CCCCCNC(=O)c1ccc(Nc2nc(N)c(C(=O)c3c(F)cccc3F)s2)cc1 | 19 |
| Nc1nc(Nc2ccc(C(=O)NC(CO)CSCc3ccccc3)cc2)sc1C(=O)c1c(F)cccc1F (stereo not shown) | 33 |
| COc1ccc(CCN(C)C(=O)c2ccc(Nc3nc(N)c(C(=O)c4c(F)cccc4F)s3)cc2)cc1OC | 26 |
| CCCc1ccc(NC(=O)c2ccc(Nc3nc(N)c(C(=O)c4c(F)cccc4F)s3)cc2)cc1 | 19 |
